Target Desc: SIX1 homeodomain (reference allele) (human, UniProt Q15475 108-198)
Sequence: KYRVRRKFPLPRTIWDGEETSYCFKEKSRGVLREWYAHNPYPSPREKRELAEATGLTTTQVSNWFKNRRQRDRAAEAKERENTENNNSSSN
Test Details: universal protein binding microarray; Universal all-10-mer PBM (8x60K, AMADID 030236), 300 nM GST-tagged protein, Alexa Fluor 488 anti-GST; buffer, salt, pH and temperature not stated (as in Berger); high values mean tight binding
Condition Info: protein: ivt; tags: N-terminal GST; dsDNA, one strand shown
The full ranking holds about 33,000 sequences; the median of “e-score” is about -0.053, and the highest 2% start at about 0.38. The full list was thinned out, with the highest values kept by preference.
Kindly apply the following: rule met if binding signal is less than 0.3 E-score, rule not met in every other case.

>  <Chain>
AATTGATC

>  <Answer Label>
rule met

$$$$
>  <Chain>
AATAATAC

>  <Answer Label>
rule not met

$$$$
>  <Chain>
ATCACGAA

>  <Answer Label>
rule met

$$$$
>  <Chain>
GAGTATCA

>  <Answer Label>
rule not met

$$$$
>  <Chain>
AGTTATCG

>  <Answer Label>
rule met

$$$$
>  <Chain>
CGAGATAC

>  <Answer Label>
rule not met

$$$$
>  <Chain>
TAGTATCA

>  <Answer Label>
rule not met

$$$$
>  <Chain>
CTATCGGA

>  <Answer Label>
rule met

$$$$
>  <Chain>
ATACACAT

>  <Answer Label>
rule met

$$$$
>  <Chain>
TAGTATAA

>  <Answer Label>
rule met

$$$$
>  <Chain>
GTGTCAAA

>  <Answer Label>
rule not met

$$$$
>  <Chain>
CATATCCA

>  <Answer Label>
rule not met

$$$$
>  <Chain>
GATCCTAC

>  <Answer Label>
rule not met

$$$$
>  <Chain>
AATACGGC

>  <Answer Label>
rule met

$$$$
>  <Chain>
CCAGATAC

>  <Answer Label>
rule not met

$$$$
>  <Chain>
GATATCCC

>  <Answer Label>
rule not met

$$$$
>  <Chain>
CCCGTCTC

>  <Answer Label>
rule met

$$$$
>  <Chain>
CCGTATAA

>  <Answer Label>
rule met

$$$$

* * *

Target Desc: SIX1 homeodomain (reference allele) (human, UniProt Q15475 108-198)
Sequence: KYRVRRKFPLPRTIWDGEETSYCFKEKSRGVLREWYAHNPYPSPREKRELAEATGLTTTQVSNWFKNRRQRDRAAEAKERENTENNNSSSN
Test Details: universal protein binding microarray; Universal all-10-mer PBM (8x60K, AMADID 030236), 300 nM GST-tagged protein, Alexa Fluor 488 anti-GST; buffer, salt, pH and temperature not stated (as in Berger); high values mean tight binding
Condition Info: protein: ivt; tags: N-terminal GST; dsDNA, one strand shown
The full ranking holds about 33,000 sequences; the median of “e-score” is about -0.053, and the highest 2% start at about 0.38. Shown is part of a subset that was picked to be rich in the highest values.
This listing pairs sequences with measured binding signal.
Measured Quantity: binding signal (E-score)

>  <Chain>
TACACCTA

>  <Unit Label>
E-score

>  <Recorded Measurement>
0.304

$$$$
>  <Chain>
CGGGTATA

>  <Unit Label>
E-score

>  <Recorded Measurement>
0.365

$$$$
>  <Chain>
AGGGTATA

>  <Unit Label>
E-score

>  <Recorded Measurement>
0.407

$$$$
>  <Chain>
TATGCATA

>  <Unit Label>
E-score

>  <Recorded Measurement>
0.202

$$$$
>  <Chain>
TATCACGA

>  <Unit Label>
E-score

>  <Recorded Measurement>
0.373

$$$$
>  <Chain>
ACCCGATC

>  <Unit Label>
E-score

>  <Recorded Measurement>
0.372

$$$$
>  <Chain>
CGTATTAG

>  <Unit Label>
E-score

>  <Recorded Measurement>
0.174

$$$$
>  <Chain>
AATACCGA

>  <Unit Label>
E-score

>  <Recorded Measurement>
0.321

$$$$
>  <Chain>
TATTCTCA

>  <Unit Label>
E-score

>  <Recorded Measurement>
0.19

$$$$
>  <Chain>
GATACCTA

>  <Unit Label>
E-score

>  <Recorded Measurement>
0.472

$$$$
>  <Chain>
ATCGGCAT

>  <Unit Label>
E-score

>  <Recorded Measurement>
0.205

$$$$
>  <Chain>
AATTGATA

>  <Unit Label>
E-score

>  <Recorded Measurement>
0.344

$$$$
>  <Chain>
TATCACAA

>  <Unit Label>
E-score

>  <Recorded Measurement>
0.385

$$$$
>  <Chain>
GTCGTATA

>  <Unit Label>
E-score

>  <Recorded Measurement>
0.186

$$$$
>  <Chain>
AGTGATCC

>  <Unit Label>
E-score

>  <Recorded Measurement>
0.452

$$$$
>  <Chain>
TAGGTATA

>  <Unit Label>
E-score

>  <Recorded Measurement>
0.382

$$$$
>  <Chain>
TCTCACCA

>  <Unit Label>
E-score

>  <Recorded Measurement>
0.259

$$$$
>  <Chain>
GCCCGATA

>  <Unit Label>
E-score

>  <Recorded Measurement>
0.33

$$$$
>  <Chain>
AGTGATCG

>  <Unit Label>
E-score

>  <Recorded Measurement>
0.25

$$$$
>  <Chain>
ATACTCTA

>  <Unit Label>
E-score

>  <Recorded Measurement>
0.268

$$$$
>  <Chain>
CGCATCTC

>  <Unit Label>
E-score

>  <Recorded Measurement>
0.154

$$$$
>  <Chain>
ATCGCTAG

>  <Unit Label>
E-score

>  <Recorded Measurement>
0.279

$$$$
>  <Chain>
AGCCGATC

>  <Unit Label>
E-score

>  <Recorded Measurement>
0.329

$$$$
>  <Chain>
ATACTGCG

>  <Unit Label>
E-score

>  <Recorded Measurement>
0.185

$$$$
>  <Chain>
TAGATCTA

>  <Unit Label>
E-score

>  <Recorded Measurement>
0.175

$$$$
>  <Chain>
CTGGTATC

>  <Unit Label>
E-score

>  <Recorded Measurement>
0.45

$$$$
>  <Chain>
CATACCGG

>  <Unit Label>
E-score

>  <Recorded Measurement>
0.166

$$$$
>  <Chain>
GTCTAGTA

>  <Unit Label>
E-score

>  <Recorded Measurement>
0.158

$$$$
>  <Chain>
CCCGATCA

>  <Unit Label>
E-score

>  <Recorded Measurement>
0.347

$$$$
>  <Chain>
CGTGATCC

>  <Unit Label>
E-score

>  <Recorded Measurement>
0.41

$$$$
>  <Chain>
GCATAATA

>  <Unit Label>
E-score

>  <Recorded Measurement>
0.187

$$$$
>  <Chain>
GATACCGA

>  <Unit Label>
E-score

>  <Recorded Measurement>
0.416

$$$$
>  <Chain>
AGATGTAT

>  <Unit Label>
E-score

>  <Recorded Measurement>
0.338

$$$$
>  <Chain>
ATACAGTC

>  <Unit Label>
E-score

>  <Recorded Measurement>
0.163

$$$$
>  <Chain>
ACACCATC

>  <Unit Label>
E-score

>  <Recorded Measurement>
0.312

$$$$
>  <Chain>
TATACTCA

>  <Unit Label>
E-score

>  <Recorded Measurement>
0.192

$$$$
>  <Chain>
TATAAATA

>  <Unit Label>
E-score

>  <Recorded Measurement>
0.16

$$$$
>  <Chain>
CATACTCA

>  <Unit Label>
E-score

>  <Recorded Measurement>
0.152

$$$$
>  <Chain>
ACATTGAT

>  <Unit Label>
E-score

>  <Recorded Measurement>
0.154

$$$$
>  <Chain>
AGCGATCC

>  <Unit Label>
E-score

>  <Recorded Measurement>
0.356

$$$$
>  <Chain>
ACTCGATA

>  <Unit Label>
E-score

>  <Recorded Measurement>
0.303

$$$$
>  <Chain>
CGATCTGC

>  <Unit Label>
E-score

>  <Recorded Measurement>
0.209

$$$$
>  <Chain>
CAGATCAG

>  <Unit Label>
E-score

>  <Recorded Measurement>
0.353

$$$$
>  <Chain>
ATACATTC

>  <Unit Label>
E-score

>  <Recorded Measurement>
0.188

$$$$
>  <Chain>
CGTGATCA

>  <Unit Label>
E-score

>  <Recorded Measurement>
0.181

$$$$
>  <Chain>
ACAGTGAT

>  <Unit Label>
E-score

>  <Recorded Measurement>
0.199

$$$$
>  <Chain>
GCCCCTCC

>  <Unit Label>
E-score

>  <Recorded Measurement>
0.158

$$$$
>  <Chain>
CCGACCCA

>  <Unit Label>
E-score

>  <Recorded Measurement>
0.155

$$$$
>  <Chain>
TACCGATA

>  <Unit Label>
E-score

>  <Recorded Measurement>
0.375

$$$$
>  <Chain>
CATACCTA

>  <Unit Label>
E-score

>  <Recorded Measurement>
0.174

$$$$
>  <Chain>
GATTGATA

>  <Unit Label>
E-score

>  <Recorded Measurement>
0.381

$$$$
>  <Chain>
CACCGATA

>  <Unit Label>
E-score

>  <Recorded Measurement>
0.374

$$$$
>  <Chain>
GGATTATA

>  <Unit Label>
E-score

>  <Recorded Measurement>
0.362

$$$$
>  <Chain>
CTATATAC

>  <Unit Label>
E-score

>  <Recorded Measurement>
0.275

$$$$
>  <Chain>
ATAACACC

>  <Unit Label>
E-score

>  <Recorded Measurement>
0.301

$$$$
>  <Chain>
CCGGCATC

>  <Unit Label>
E-score

>  <Recorded Measurement>
0.201

$$$$
>  <Chain>
ATGGTATC

>  <Unit Label>
E-score

>  <Recorded Measurement>
0.469

$$$$
>  <Chain>
ATGCGGTA

>  <Unit Label>
E-score

>  <Recorded Measurement>
0.265

$$$$
>  <Chain>
AATACTAC

>  <Unit Label>
E-score

>  <Recorded Measurement>
0.181

$$$$
>  <Chain>
GGTGATCA

>  <Unit Label>
E-score

>  <Recorded Measurement>
0.315

$$$$
>  <Chain>
CTGGTATA

>  <Unit Label>
E-score

>  <Recorded Measurement>
0.255

$$$$
>  <Chain>
AATACTCA

>  <Unit Label>
E-score

>  <Recorded Measurement>
0.255

$$$$
>  <Chain>
GATTATCA

>  <Unit Label>
E-score

>  <Recorded Measurement>
0.219

$$$$
>  <Chain>
AATACCGG

>  <Unit Label>
E-score

>  <Recorded Measurement>
0.273

$$$$
>  <Chain>
GGGCTAGA

>  <Unit Label>
E-score

>  <Recorded Measurement>
0.209

$$$$

Values compiled from paper PMC10668032.
